Tested on: U251 CNS
Experiment: NCI tumour cell line growth inhibition, 48 h
Recorded TGI by entry
Express the result in µM but write the number alone.

compound="CC(CCOc1ccc2ccc(=O)oc2c1)C1=CC(=O)C(C)(C)O1 (configuration not stated)" observed_result=10.3

Give a short answer stating reported TGI for `Cn1cnc([N+](=O)[O-])c1Sc1nc2ccccc2s1` . 24.4

Give a short answer stating reported TGI for COc1ccc(/C=C/C2C(C#N)=C(N)OC3=C2C(=O)CCC3)cc1 (configuration not stated) . 25

Give a short answer stating reported TGI for CCN(CC)CC(O)CNc1c2ccc(Cl)cc2nc2ccc(OC)cc12 (configuration not stated) . 2.32

* * *

System: DU-145 prostate
Test: NCI tumour cell line growth inhibition, 48 h; in the data active means GI50 below about 0.43 µM; inactive means the rest
Lab note: assign the record to one of t (active), f (inactive)

compound="O=c1ncc(I)cn1C1CC(O)C(CO)O1 (stereo unspecified)" target_or_test_system="DU-145 prostate" group_label=f
compound=Cn1ccc2c1SSSSS2 target_or_test_system="DU-145 prostate" group_label=f
compound=O=C(O)c1ccc(NCc2nc3cc(Cl)c(Cl)cc3[nH]2)cc1 target_or_test_system="DU-145 prostate" group_label=f

I would be grateful if you could indicate the recorded call for `Cc1cc(Cl)ccc1OCc1nn2c(CCCCc3nnc4sc(COc5ccc(Cl)cc5C)nn34)nnc2s1` . f

I would be grateful if you could indicate the recorded call for `C[CH2][Pb]([CH2]C)([CH2]C)[O]C(=O)COC` . f

I would be grateful if you could indicate the recorded call for `COc1cc(OC)c(/C=C/c2cc[n+](C)c3ccccc23)c(OC)c1` . f

I would be grateful if you could indicate the recorded call for `COc1cccc2c1O/C(=C\c1ncc([N+](=O)[O-])n1C)C2=O` . t

I would be grateful if you could indicate the recorded call for `O=C1/C=C/[C@@H](O)[C@@H]2C[C@@H](O)C[C@H]2/C=C/CCC[C@H](CCc2ccccc2)O1` . t

I would be grateful if you could indicate the recorded call for `COc1ccc(C(=O)c2sc3nc4c(cc3c2N)CCCC4)cc1OC` . f

I would be grateful if you could indicate the recorded call for CCN(CC)CC(O)CNc1c2ccc(Cl)cc2nc2ccc(OC)cc12 (stereo unspecified) . f

I would be grateful if you could indicate the recorded call for `CC(=O)N1CCC(Nc2ncc3cc(Oc4ccc(F)cc4F)c(=O)n(C)c3n2)CC1` . f

* * *

Tested on: TK-10 renal
Test: NCI tumour cell line growth inhibition, 48 h
measured.metric: GI50

cpd_smiles=COc1cc(OC)c(/C=C/c2cc[n+](C)c3ccccc23)c(OC)c1 observed_result="3.54 µM"

Give a short answer stating reported GI50 for `Nc1c(C(=O)c2cccc(OC[C@@H](O)CO)c2)cnn1-c1ccc(F)cc1` . > 25 µM

Give a short answer stating reported GI50 for `O=C(Nc1ccc(Cl)cc1)Nc1ccc(Cl)c(C(F)(F)F)c1` . 4.25 µM

Give a short answer stating reported GI50 for `CC1(C)CC[C@]2(C(=O)Nc3ccccn3)CC[C@]3(C)C(=CC[C@@H]4[C@@]5(C)C/C(=C/c6ccncc6)C(=O)C(C)(C)[C@@H]5CC[C@]43C)[C@@H]2C1` . 5.75 µM

* * *

Tested on: SW-620 colon
Assay: NCI tumour cell line growth inhibition, 48 h
Recorded TGI by entry

Give a short answer stating reported TGI for `Cc1nc2cc(-c3nn(C(C)C)c4ncnc(N)c34)ccc2o1` . > 10 µM

Give a short answer stating reported TGI for `CCCCOC(=O)CC(CC(=O)OCCCC)(OC(C)=O)C(=O)OCCCC` . > 200 µM

Give a short answer stating reported TGI for O=C(NC(Cc1ccc(I)cc1)C(=O)O)c1cccc(Br)c1 (stereo unspecified) . > 100 µM

Give a short answer stating reported TGI for `CCCCCCCCCCCC[C@@H](O)[C@H]1CC[C@H]([C@H]2CC[C@H]([C@H](O)CC[C@H](O)CCCCCCCC3=C[C@H](C)OC3=O)O2)O1` . 5.82 µM

Attribution: PubChem BioAssay (NCI)
